# targetOfAssay: T1, human B7-H1, full length, expressed on the cell surface (human, UniProt Q9NZQ7 19-290)
# T1 construct: whole, on cells; also called CHO-hB7-H1; CHO-B7-H1 cells
# T1 sequence (Q9NZQ7 19-290): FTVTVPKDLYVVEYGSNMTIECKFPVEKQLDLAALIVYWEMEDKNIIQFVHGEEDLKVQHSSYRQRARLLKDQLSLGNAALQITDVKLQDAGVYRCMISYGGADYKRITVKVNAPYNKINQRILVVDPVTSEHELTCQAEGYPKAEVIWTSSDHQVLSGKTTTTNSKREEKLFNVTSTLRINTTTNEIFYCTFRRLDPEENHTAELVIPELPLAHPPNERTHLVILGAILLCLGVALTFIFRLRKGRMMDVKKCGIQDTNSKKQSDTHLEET
# assayMethodText: flow cytometry on CHO cells expressing human B7-H1, median fluorescence intensity
property: MFI
Numbers only.

Solved entries:
INSERT INTO measurements (binder, measuredvalue) VALUES
  ('Anti-Human B7-H1 Clone 1F4 (antibody, V domains shown, Murine hybridoma IgG) VH: EVQLQESGPGLVAPSQSLSITCTVSGFSLTTYSINWIRQPPGKGLEWLGVMWAGGGTNSNSVLKSRLIISKDNSKSQVFLKMNSLQTDDTARYYCARYYGNSPYYAIDYWGQGTSVTVSS VL: DIVTTQSHKLMSTSVGDRVSITCKASQDVGTAVAWYQQKPGQSPKLLIYWASTRHTGVPDRFTGSGSGTDFTLTISNVQSEDLADYFCQQDSSYPLTFGAGTKVELK', 62000),
  ('Anti-Human B7-H1 Clone 3B6 (antibody, V domains shown, Murine hybridoma IgG) VL: DIVMTQSPAIMSASPGEKVTMTCSASSSIRYMHWYQQKPGTSPKRWISDTSKLTSGVPARFSGSGSGTSYALTISSMEAEDAATYYCHQRSSYPWTFGGGTKLEIK V domain: EVKLQESGPSLVKPGASVKLSCKASGYTFTSYDINWVKQRPGQGLEWIGWIFPRDNNTKYNENFKGKATLTVDTSSTTAYMELHSLTSEDSAVYFCTKENWVGDFDYWGQGTTLTLSS', 59600),
  ('Anti-Human B7-H1 Clone 3D10 (antibody, V domains shown, Murine hybridoma IgG) VH: EVQLQQSGPDLVTPGASVRISCQASGYTFPDYYMNWVKQSHGKSLEWIGDIDPNYGGTTYNQKFKGKAILTVDRSSSTAYMELRSLTSEDSAVYYCARGALTDWGQGTSLTVSS VL: QIVLSQSPAILSASPGEKVTMTCRASSSVSYIYWFQQKPGSSPKPWIYATFNLASGVPARFSGSGSGTSYSLTISRVETEDAATYYCQQWSNNPLTFGAGTKLELK', 53100);

Note: attention shifts to another entry.
Task item: Endpoint output: MFI of Anti-Human B7-H1 Clone 1E12 (antibody, V domains shown, Murine hybridoma IgG) VH: EVKLQESGPSLVKPSQTLSLTCSVTGYSITSDYWNWIRKFPGNKLEYVGYISYTGSTYYNPSLKSRISITRDTSKNQYYLQLNSVTSEDTATYYCARYGGWLSPFDYWGQGTTLTVSS VL: DIVMTQSHKLMSTSVGDRVSITCKASQDVGTAVAWYQQKPGQSPKLLIYWASTRHTGVPDRFTGSGSGTDFTLTISNVQSEDLADYFCQQDSSYPLTFGAGTKVELK . Value?
Reply: 56200

Values compiled from patent US20140044738A1.
